Molecular target: TLR8 (Homo sapiens)
Sequence (Q9NR97 27-1041): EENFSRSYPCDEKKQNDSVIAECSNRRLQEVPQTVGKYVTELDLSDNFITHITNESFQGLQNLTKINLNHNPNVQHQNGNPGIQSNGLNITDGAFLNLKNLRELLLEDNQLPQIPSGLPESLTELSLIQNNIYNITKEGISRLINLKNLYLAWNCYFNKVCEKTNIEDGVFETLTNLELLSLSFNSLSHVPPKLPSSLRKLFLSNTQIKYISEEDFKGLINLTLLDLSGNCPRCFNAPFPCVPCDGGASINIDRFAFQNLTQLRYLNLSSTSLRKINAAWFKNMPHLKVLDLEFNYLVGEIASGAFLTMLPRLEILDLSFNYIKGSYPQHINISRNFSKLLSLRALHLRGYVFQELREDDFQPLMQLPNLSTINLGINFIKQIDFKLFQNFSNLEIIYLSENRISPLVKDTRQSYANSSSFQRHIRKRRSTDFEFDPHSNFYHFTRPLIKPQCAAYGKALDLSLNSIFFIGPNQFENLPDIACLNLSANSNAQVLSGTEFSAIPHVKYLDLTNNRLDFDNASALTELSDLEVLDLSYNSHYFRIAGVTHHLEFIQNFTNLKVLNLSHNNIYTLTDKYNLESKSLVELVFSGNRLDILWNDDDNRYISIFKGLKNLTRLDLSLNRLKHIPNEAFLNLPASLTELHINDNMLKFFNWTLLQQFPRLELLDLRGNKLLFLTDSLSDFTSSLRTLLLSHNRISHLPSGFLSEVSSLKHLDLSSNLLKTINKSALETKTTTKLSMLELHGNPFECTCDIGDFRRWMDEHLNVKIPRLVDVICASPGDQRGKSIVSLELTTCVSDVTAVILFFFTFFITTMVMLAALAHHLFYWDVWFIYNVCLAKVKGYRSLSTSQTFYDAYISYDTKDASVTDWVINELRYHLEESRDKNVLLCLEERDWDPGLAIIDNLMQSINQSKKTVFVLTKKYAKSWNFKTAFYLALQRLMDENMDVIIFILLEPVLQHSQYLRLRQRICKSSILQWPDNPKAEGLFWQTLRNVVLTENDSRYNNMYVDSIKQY
Test: Dose dependent TLR8-mediated NF-κB-luciferase response in HEK293 cells transfected with TLR8 (Example 5)
Type: cell-based
Parameters: expressed in transfected cells; host or cells: HEK293 (ATCC CRL-1573), pIRES vector, G-418 selected, co-transfected with NFkB-luc reporter
Settings: 30 μM
Collected Fold increase over vehicle values appear next to each entry.
Give a bare numeral; the unit fold is implied.

See these solved cases before continuing.
{"columns": ["compound.structure.string", "Fold increase over vehicle, fold"],
 "data": [
  ["CCCCc1nc2c(N)nc3ccccc3c2n1CCS(C)(=O)=O", 24.3],
  ["CCCNC(=O)NC(C)(C)Cn1c(COCC)nc2c(N)nc3ccccc3c21", 9.9],
  ["COCCc1nc2c(N)nc3cc(-c4cncc(CO)c4)ccc3c2n1CC(C)(C)O", 15.5],
  ["CCCCc1nc2c(N)nc3ccccc3c2n1CCCS(C)(=O)=O", 16.4],
  ["CCOCc1nc2c(N)nc3ccccc3c2n1CC(C)(C)NC(=O)NC1CCCC1", 9.2]
]}

Next:
Give recorded Fold increase over vehicle. "CCOCC(=O)NC(C)(C)Cn1c(COCC)nc2c(N)nc3ccccc3c21" 17.0
